Numbers sourced from ChEMBL document CHEMBL4689842.

Tested on: HEK-293T
assay.summary: Incucyte cell viability with HEK293T; further: filed as whole numbers so only -1 and 0 and 1 occur
Assay type: toxicity, cell-based
measurement.context: human, 12 h, 10 µM, compound concentration 10 uM, replicate number 1, timepoint 12 hours
measured.parameter: Growth Rate

# molecule, recorded.number
data = [
    ("COc1ccc2c(c1)O[C@@H](c1ccc(OC)c(OC)c1)C[C@H]2NC(=O)C1(c2ccc3c(c2)OC(F)(F)O3)CC1 [A-1596586]", 0),
    ("C[C@H]1C[C@H]2[C@@H]3CCC4=CC(=O)C=C[C@]4(C)[C@@]3(Cl)[C@@H](O)C[C@]2(C)[C@@]1(O)C(=O)CO [BECLOMETHASONE]", 1),
    ("CCOP(=O)(OCC)C(=Cc1cc(C(C)(C)C)c(O)c(C(C)(C)C)c1)P(=O)(OCC)OCC", 0),
    ("CC(C)c1ccc(CC(=O)N2CCC[C@@H](c3cccc(OC(C)(C)C(=O)O)c3)C2)cc1", 1),
    ("CC1=C2C[C@H]3[C@@H](CC=C4C[C@@H](O)CC[C@@]43C)[C@@H]2CC[C@]12O[C@@H]1C[C@H](C)CN[C@H]1[C@H]2C [CYCLOPAMINE]", 0),
    ("Cc1ccc2[nH]c(CNCCCc3ccncc3)cc(=O)c2c1 [UCSF924NC]", 0),
    ("CCOC(=O)c1ncn2c1CN(C)C(=O)c1cc(F)ccc1-2 [FLUMAZENIL]", 1),
    ("Cc1cn2cc(CC(=O)N3CCC4(CC3)CN(Cc3ccc(-n5nccn5)cc3Cl)C4)nc2s1", 0),
]

---

Test system: U2OS
assay.summary: Incucyte cell viability with U2OS; further: filed as whole numbers so only -1 and 0 and 1 occur
Assay type: toxicity, cell-based
measurement.context: human, 0 h, 10 µM, compound concentration 10 uM, replicate number 1, timepoint 0 hours
Growth Rate: recorded values
measured.parameter: Growth Rate

# molecule, measured.parameter, recorded.number
records = [
    ("OCCn1cc(-c2ccc3c(c2)CCC3=NO)c(-c2ccncc2)n1", "Growth Rate", 1),
    ("Cc1c(Nc2ccc(S(=O)(=O)N3CCN(C)CC3)cc2F)nc2ccc(Nc3cnn(C4CC4)c3)cn2c1=O", "Growth Rate", 0),
    ("Cc1ccc(S(=O)(=O)NC2c3ccccc3Oc3ccccc32)cc1", "Growth Rate", 0),
    ("Cc1c(C2=CCN(C(=O)N(C)C(C)C)CC2)nnn1-c1cccnc1F", "Growth Rate", 0),
    ("CCN(CCO)CCCOc1ccc2c(Nc3cc(CC(=O)Nc4cccc(F)c4)[nH]n3)ncnc2c1 [DEFOSBARASERTIB]", "Growth Rate", 1),
    ("CCOC(=O)c1ncn2c1CN(C)C(=O)c1cc(F)ccc1-2 [FLUMAZENIL]", "Growth Rate", 1),
    ("Cc1cc2c(cc1-c1cc(/C=C/C(=O)O)ccc1O)C(C)(C)CCC2(C)C", "Growth Rate", 0),
    ("COc1ccc(Br)cc1S(=O)(=O)NC(=O)/C=C/c1ccccc1Cc1ccc2ccccc2c1", "Growth Rate", 0),
    ("C[C@@H](N)Cc1c[nH]cn1.Cl.Cl", "Growth Rate", 1),
    ("Cc1cc2c(cc1C1(c3ccc(C(=O)O)cn3)CC1)C(C)(C)CCC2(C)C", "Growth Rate", 0),
]

---

Population Mitochondria Different-Phenotype (%) values by entry
Tested on: Fibroblast
assay.summary: Multiplex assay against human fibroblast
Type: toxicity, cell-based
measurement.context: 12 h, 10 µM, compound concentration 10 uM, replicate 2
measured.parameter: Population Mitochondria Different-Phenotype (%)

# compound, measurement.target, result
records = [
    ("CCOc1ccn(-c2ccc(F)cc2)c(=O)c1C(=O)Nc1ccc(Oc2ccnc(N)c2Cl)c(F)c1 [BMS-777607]", "Fibroblast", "4%"),
    ("CCCc1cc(C)[nH]c(=O)c1CNC(=O)c1cc(-c2ccc(N3CCN(C(C)C)CC3)nc2)cc2c1cnn2C(C)C", "Fibroblast", "100%"),
    ("Cc1ccc(NC(=O)Nc2cc(C(F)(F)F)ccc2F)cc1Nc1ccc2c(c1)NC(=O)/C2=C\\c1ccc[nH]1", "Fibroblast", "19%"),
    ("CC(C)c1cc(Nc2nc(N3CCC[C@H](N)C3)ncc2C(N)=O)cc(C(C)C)n1", "Fibroblast", "93%"),
    ("Cl.NC[C@@H]1O[C@H](C23CC4CC(CC(C4)C2)C3)Cc2c1ccc(O)c2O", "Fibroblast", "22%"),
    ("C=CC(=O)Nc1cc(-n2c(=O)ccc3cnc4ccc(-c5ccc(NS(C)(=O)=O)cc5)cc4c32)ccc1C", "Fibroblast", "56%"),
    ("Cl.Cn1c2c(c3ccc(Cl)c(Cl)c31)C(C#N)C1(CCNCC1)NC2=O (stereo not drawn)", "Fibroblast", "2%"),
    ("Oc1cccc(-c2nc(N3CCOCC3)c3oc4ncccc4c3n2)c1 [PI-103]", "Fibroblast", "59%"),
    ("CCCCCNC(=N)N/N=C/c1c[nH]c2ccc(OC)cc12.O=C(O)/C=C\\C(=O)O [TEGASEROD MALEATE]", "Fibroblast", "100%"),
    ("CN(c1cc(C(F)(F)F)nc(OCCC(=O)O)n1)c1cccc2c1CCC2", "Fibroblast", "10%"),
    ("NC(=O)c1ccc2nc(-c3ccc(C4(N)CCC4)cc3)c(-c3ccccc3)n2n1 [BAY-1125976]", "Fibroblast", "0%"),
    ("Cc1ccc(S(=O)(=O)NC2c3ccccc3Oc3ccccc32)cc1", "Fibroblast", "0%"),
    ("CCOC(=O)CCNc1cc(N2CCc3ccccc3CC2)nc(-c2ccccn2)n1", "Fibroblast", "6%"),
    ("N#CCNC(=O)c1ccc(-c2ccnc(Nc3ccc(N4CCOCC4)cc3)n2)cc1 [MOMELOTINIB]", "Fibroblast", "6%"),
    ("CC[C@@H]1C(=O)N(C)c2cnc(Nc3ccc(C(=O)NC4CCN(C)CC4)cc3OC)nc2N1C1CCCC1 [BI-2536]", "Fibroblast", "25%"),
    ("N#Cc1cccc(C(=O)Nc2cc(-c3ccccc3)nn2-c2ccccc2)c1", "Fibroblast", "84%"),
    ("C[C@@H](Oc1cc(-n2cnc3ccc(CN4CCN(C)CC4)cc32)sc1C(N)=O)c1ccccc1C(F)(F)F [GSK-461364]", "Fibroblast", "100%"),
    ("CC(C)[C@H](CO)Nc1nc(Nc2cccc(Cl)c2)c2ncn(C(C)C)c2n1 [PURVALANOLA]", "Fibroblast", "95%"),
]

---

Catalogue of compounds with associated Population Membrane Permeable-Phenotype (%)
System: U2OS
assay.summary: Multiplex assay against U2OS
Format: toxicity, cell-based
measurement.context: human, 48 h, 10 µM, compound concentration 10 uM, replicate 1
measured.parameter: Population Membrane Permeable-Phenotype (%)

# compound, measurement.target, recorded.number
measured = [
    ("N#CCNC(=O)c1ccc(-c2ccnc(Nc3ccc(N4CCOCC4)cc3)n2)cc1 [MOMELOTINIB]", "U2OS", 20),
    ("N#Cc1cccc(C(=O)Nc2cc(-c3ccccc3)nn2-c2ccccc2)c1", "U2OS", 32),
    ("Cc1c(Nc2ccc(S(=O)(=O)N3CCN(C)CC3)cc2F)nc2ccc(-c3cnn(C4CC4)c3)cn2c1=O", "U2OS", 4),
    ("c1ccc(-c2oc3ncnc(NC[C@@H]4CCCO4)c3c2-c2ccccc2)cc1", "U2OS", 41),
    ("CC(C)[C@H](CO)Nc1nc(Nc2cccc(Cl)c2)c2ncn(C(C)C)c2n1 [PURVALANOLA]", "U2OS", 64),
    ("CCCCN(CC)c1nc(C)nc2c1c(C)cn2-c1c(C)cc(C)cc1C.Cl", "U2OS", 4),
    ("CC(Cc1ccc(O)c(O)c1)C(C)Cc1ccc(O)c(O)c1 (stereo unspecified) [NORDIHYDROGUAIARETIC ACID]", "U2OS", 6),
    ("C=CC(=O)Nc1cc(-n2c(=O)ccc3cnc4ccc(-c5ccc(NS(C)(=O)=O)cc5)cc4c32)ccc1C", "U2OS", 10),
    ("CCCCCNC(=N)N/N=C/c1c[nH]c2ccc(OC)cc12.O=C(O)/C=C\\C(=O)O [TEGASEROD MALEATE]", "U2OS", 100),
    ("Cc1ccc(S(=O)(=O)NC2c3ccccc3Oc3ccccc32)cc1", "U2OS", 3),
    ("Cl.NC[C@@H]1O[C@H](C23CC4CC(CC(C4)C2)C3)Cc2c1ccc(O)c2O", "U2OS", 20),
    ("CN1CCN(Cc2ccc(-c3cnc4[nH]cc(-c5ccc6[nH]ccc6c5)c4c3)cc2)CC1", "U2OS", 66),
    ("CC(/C=C1\\SC(=S)N(CCCC(=O)Nc2ccc(C(=O)O)c(O)c2)C1=O)=C\\c1ccccc1", "U2OS", 2),
    ("CN1C(=O)[C@@H](NC(=O)c2cc3ccccc3[nH]2)N=C(c2ccccc2)c2ccccc21 [DEVAZEPIDE]", "U2OS", 31),
    ("Cc1c(P(=S)(c2ccccc2)c2ccccc2)n2ccccc2[n+]1C/C=C/c1ccccc1.[Br-]", "U2OS", 66),
    ("Oc1cccc(-c2nc(N3CCOCC3)c3oc4ncccc4c3n2)c1 [PI-103]", "U2OS", 37),
]
